meta.source: patent US20240059758A1

Target system: S1-mFc (UniProt P0DTC2 14-694)
Assay protocol: ELISA
Parameter: EC50. Scope: all listed entries.
Property label: EC50

>>> result("STE72-4E12 (antibody, V domains shown) VH: QVQLVQSGAEVKKPGASVKVSCKASGYTFTSYYMHWVRQAPGQGLEWMGIINPSGGSTSYAQKFQGRVTMTRDTSTSTVYMELSSLRSEDTAVYYCARDLSGGLDYWGQGTLVTVSS VL: ETTLTQSPATLSVSPGERVTLACRAGQTISSKLAWYRQKPGQAPSLLIYDASTRATGVPARFSGSGSGTEFTLTISSLQSEDFAVYYCQQYSDWPPTFGQGTKVEIK")
"10.4 nM"
>>> result("STE72-1B6 (antibody, V domains shown) VH: QVKLVQSGGGLVQPGGSLRLSCAASGFTFSSYAMSWVRQAPGKGLEWVSGISGSGGSTYYADSVKGRFTISRDNSKNTLYLQVNSLRAEDTAVYYCAKAPYGDFRGLWYFDYWGQGTLVTVSS VL: DIVMTQSPFSVSASVGDRVTISCRASQDIRSWLAWYQQKPGKAPQLLIYDASSLQSGVPSRFSGSGSGTDFTLTISSLQPEDFATYYCQQADSVPLTFGGGTKVEIQ")
"2.2 nM"
>>> result("STE72-8A6 (antibody, V domains shown) VH: QVQLVQSGAEVKKPGASVKVSCKASGYTFTSYGISWVRQAPGQGLEWMGWISAYNGNTNYAQKLQGRVTMTTDTSTSTAYMELRSLRSDDTAVYYCARFFYDSSGYSTDYWGQGTLVTVSS VL: DIVMTQSPSTLSASVGDRVTISCRASQNIGTWLAWYQQKPGKAPKLLISKASSLESGVPSRFSGSGSGTDFTLTISSLQPDDFATYYCQQYDSYLFTFGQGTKLEIR")
"2.9 nM"
